All figures here come from patent US20050208041A1.

Target: T1, purified recombinant IFNAR-1 extracellular fragment (human, UniProt P17181 28-436)
T1 construct: extracellular domain; also called soluble IFNAR-1; soluble IFNAR
T1 sequence (looked up): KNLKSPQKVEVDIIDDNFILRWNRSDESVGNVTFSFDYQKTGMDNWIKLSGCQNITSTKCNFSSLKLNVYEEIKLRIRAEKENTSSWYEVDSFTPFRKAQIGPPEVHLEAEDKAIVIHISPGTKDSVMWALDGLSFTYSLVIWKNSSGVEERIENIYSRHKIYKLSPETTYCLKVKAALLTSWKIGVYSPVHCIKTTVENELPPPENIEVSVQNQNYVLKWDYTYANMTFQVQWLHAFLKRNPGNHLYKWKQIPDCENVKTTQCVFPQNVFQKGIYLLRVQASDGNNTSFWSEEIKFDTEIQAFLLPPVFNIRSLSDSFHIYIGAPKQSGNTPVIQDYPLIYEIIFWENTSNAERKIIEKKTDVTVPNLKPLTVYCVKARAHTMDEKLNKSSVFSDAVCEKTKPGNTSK
Test: Biacore, response on IFNAR-1 (flow cell 2) divided by response on anti-human IgG Fc (flow cell 4)
Listed next: entries and their corresponding Fc2/Fc4.

Binder: DI M3 heavy chain with DI K1 light chain (antibody, human IgG4, V domains shown, also called DI M3 DI K1) VH: EVQLLESGGGLVQPGGSLRLSCAASGFTMSTSGMGIGWIRQTPGKGLEWVAHIWWDDDKYYNPSLKSRFTISKDTSKNTLYLQMNSLRAEDTAVYYCARNYYPYDAWFDYWGQGTLVTVS VL: DIQMTQSPSSLSASVGDRATITCSASSSINSNHLHWYLQKPGKAPKALIYRTSILASGIPSRFSGSGSGTDFTLTISSLQPEDTATYYCQQGSNIPFTFGQGTKVEIKR
Fc2/Fc4: 0.06

Binder: M3 heavy chain with K1-D light chain (antibody, human IgG4, V domains shown, also called M3 K1-D) VH: EVQLLESGGGLVQPGGSLRLSCAFSGFTLSTSGMGIGWVRQAPGKGLEWVAHIWWDDDKYYNPSLKSRFTISRDTSKNTVYLQMNSLRAEDTAVYYCARNYYPYDAWFDYWGQGTLVTVS VL: DIQMTQSPSSLSASVGDRVTITCSASSSINSNHLNWYQQKPGKAPKLLIYRTSILASGVPSRFSGSGSGTSFTLTISSLQPEDFATYYCQQGSNIPFTFGQGTKVEIKR
Fc2/Fc4: 0.09
